# System: CEM cells HIV-1 protection, formazan growth assay
# assayExplanation: NCI AIDS Antiviral Assay
# conditionsUsed: measured here: growth of uninfected CEM cells
pIC50: −log10 of the molar value.
Consider the following molecules; for each one, report its pIC50.

Reported pIC50 ( CN(C)CCC(O)(c1ccccc1)C(O)(CCN(C)C)c1ccccc1 (centres undefined) ) = < 4.14

Reported pIC50 ( CC1=NN(C(=O)CC(=O)Nc2ccccc2Cl)C(=O)C1N=Nc1ccc(S(=O)(=O)c2ccc(N=NC3C(=O)N(C(=O)CC(=O)Nc4ccccc4Cl)N=C3C)cc2)cc1 (centres undefined) ) = < 4.00

Reported pIC50 ( `O=C(O)c1ccc(C2=Cc3cc(Cl)ccc3OC2)cc1` ) = < 4.18

Reported pIC50 ( CCOC(=O)C1Cc2ccc(OC)cc2C2=CC(=O)CCC21 (centres undefined) ) = < 3.78

Reported pIC50 ( `Clc1ccccc1CSc1ccc2nncc(SCc3ccccc3Cl)c2c1` ) = < 4.46

Reported pIC50 ( `CCOC(=O)c1cc2c3c(c(C(C)=O)c(OC)c2[nH]1)N(C(=O)CC)CC3` ) = 4.79

Reported pIC50 ( O=C(O)C1CCC(c2ccc(Cl)cc2Cl)=N1 (centres undefined) ) = < 3.70

Reported pIC50 ( CN1C(=S)N2CCCCCCCC2C(C#N)=C1N (centres undefined) ) = < 3.70

Reported pIC50 ( `O=C(Nc1ccc(/C=C/c2ccc(NC(=O)c3ccc(N=Nc4cc(S(=O)(=O)O)c5cccnc5c4O)cc3)cc2S(=O)(=O)O)c(S(=O)(=O)O)c1)c1ccc(N=Nc2cc(S(=O)(=O)O)c3cccnc3c2O)cc1` ) = < 4.00

###

# Test system: CEM cells HIV-1 protection, formazan growth assay
# assayExplanation: NCI AIDS Antiviral Assay
# conditionsUsed: measured here: growth of uninfected CEM cells
Consider the following compounds; for each one, report its IC50.

Reported IC50 ( `CC(C)(C)C1=CC(=NC(=O)c2cc([N+](=O)[O-])cc([N+](=O)[O-])c2)C=C(C(C)(C)C)C1=O` ) = > 6.03 µM

Reported IC50 ( `O=C(O)c1ccc2[nH]c(=O)oc2c1` ) = > 200 µM

Reported IC50 ( `CON[N+]([O-])=NC(C)C` ) = > 200 µM

Reported IC50 ( `CC1(C)O[C@@H](CP(c2cccc3ccccc23)c2cccc3ccccc23)[C@H](CP(c2cccc3ccccc23)c2cccc3ccccc23)O1` ) = > 200 µM

Reported IC50 ( `O=c1[nH]c(N2CCOCC2)nc2cc3ccccc3cc12` ) = > 155 µM

Reported IC50 ( `OCCCSCCCCSCCCO` ) = > 41.7 µM

Reported IC50 ( O=C(C[N+]12CC=C(CO)C1C(O)CC2)c1ccc(Br)cc1 (stereo not given) ) = > 575 µM

Reported IC50 ( CCOC(=O)C1=C(C)N(NC(N)=O)C(C)(O)C12CCOC2=O (stereo not given) ) = > 794 µM

Reported IC50 ( `O=c1[nH]c2[nH]c(-c3ccc(Br)cc3)cc2c2ccccc12` ) = > 200 µM

Reported IC50 ( `O=S1OC(c2ccccc2)(c2ccccc2)C(c2ccccc2)(c2ccccc2)O1` ) = > 16.2 µM

###

# System: CEM cells HIV-1 protection, formazan growth assay
# assayExplanation: NCI AIDS Antiviral Assay
# conditionsUsed: measured here: growth of uninfected CEM cells
readoutKind: IC50

Reported IC50 ( `N#CC(C#N)=CN1CCNC1=S` ) = > 200 µM

Reported IC50 ( `N#Cc1c(N)c(C(=O)Nc2ccccc2)n2c1CCC2` ) = > 200 µM

Reported IC50 ( `O=c1/c(=C\c2ccc(Cl)c(Cl)c2)sc2n1CCN=2` ) = > 200 µM

Reported IC50 ( `Cc1cccc(-c2nnc3s/c(=C\c4ccc(N(C)C)cc4)c(=O)n23)c1` ) = > 30.9 µM

Reported IC50 ( CC(=O)N1C(OC(C)C)CC(C)N1c1ccccc1 (centres undefined) ) = > 200 µM

Reported IC50 ( COC(=O)C(Cc1nc2ccccc2nc1C)/C(=N\NC(N)=O)C(=O)Nc1cccc([N+](=O)[O-])c1 (centres undefined) ) = > 15.1 µM

Reported IC50 ( `CCCC1=NC(C(F)(F)F)(C(F)(F)F)N=C(N2CCOCC2)O1` ) = > 200 µM

Reported IC50 ( O=C(O)C1CC2C3CCC2C1C3=O (centres undefined) ) = > 200 µM

Reported IC50 ( COC(=O)C(=O)C(C(=O)C(=O)Nc1ccc(C)cc1)c1nc2ccc(C(=O)c3ccccc3)cc2[nH]c1=O (centres undefined) ) = > 26.3 µM

###

# System: CEM cells HIV-1 protection, formazan growth assay
# assayExplanation: NCI AIDS Antiviral Assay
# conditionsUsed: measured here: growth of uninfected CEM cells
Consider the following compounds; for each one, report its IC50.

Reported IC50 ( O=C1C2C3C=C4c5ccccc5N(c5ccccc5)C4(C2C(=O)N1c1ccc(Cl)cc1)[C@H]1C(=O)N(c2ccc(Cl)cc2)C(=O)[C@@H]31 (stereo not given in full) ) = > 3.16 µM

Reported IC50 ( NC(=O)C1CCCN1C(=O)C(Cc1cnc[nH]1)NC(=O)C1CCCC1 (stereo not given) ) = > 200 µM

Reported IC50 ( CN(N=O)C(=O)NC(CCCCNC(=O)OCc1ccccc1)C(=O)OCc1ccccc1 (stereo not given) ) = > 21.9 µM

Reported IC50 ( CC(C)C1CCC/C=C/C=C/C=C/C=C/C(OC2OC(C)C(O)C(N)C2O)CC2OC(O)(CC(O)CC(O)C(O)CCC(=O)O1)CC(O)C2C(=O)O (stereo not given) ) = > 339 µM

Reported IC50 ( O=c1[nH]c(=O)n(C2CC(O)C(CO)O2)cc1NN=NCCc1ccccc1 (stereo not given) ) = > 200 µM

###

# System: CEM cells HIV-1 protection, formazan growth assay
# assayExplanation: NCI AIDS Antiviral Assay
# conditionsUsed: measured here: growth of uninfected CEM cells
Consider the following molecules; for each one, report its IC50.
The reply should be a number in µM, with the unit left off.

Param item: `CCCCCCCCCCCCCCCC[N+](C)(C)CCN(Cc1ccc(OC)cc1)c1ncccn1` ; param system: CEM cells HIV-1 protection, formazan growth assay; output IC50: 0.977

Param item: COc1ccccc1N1C(=O)CSC1c1c[nH]c2ccccc12 (centres undefined) ; param system: CEM cells HIV-1 protection, formazan growth assay; output IC50: 186

Param item: `Nc1ccnc(N)c1N=O` ; param system: CEM cells HIV-1 protection, formazan growth assay; output IC50: 27.5

Param item: `CC(C)(C)c1cc2c(c(C(C)(C)C)c1O)CC(=O)O2` ; param system: CEM cells HIV-1 protection, formazan growth assay; output IC50: 41.7

Param item: CC(=O)Nc1ccc(N2C(=O)/C(=C\c3cccc(Oc4ccccc4)c3)SC2c2ccccc2)cc1 (centres undefined) ; param system: CEM cells HIV-1 protection, formazan growth assay; output IC50: 36.3

Param item: `[O-][n+]1onc2ncccc21` ; param system: CEM cells HIV-1 protection, formazan growth assay; output IC50: 19.5

Param item: C=C1C(=O)OC2/C=C(\C)CC(O)/C=C(\C)CC(OC(=O)/C(=C\C)COC(C)=O)C12 (centres undefined) ; param system: CEM cells HIV-1 protection, formazan growth assay; output IC50: 0.407

###

# Test system: CEM cells HIV-1 protection, formazan growth assay
# assayExplanation: NCI AIDS Antiviral Assay
# conditionsUsed: measured here: growth of uninfected CEM cells
# Method: The ability of compounds to protect human CEM cells from HIV-1 infection is measured as a screen for new compounds capable of inhibiting the HIV virus. Five concentrations of drug were tested on uninfected and infected cells and cell growth was measured using a soluble formazan assay. […] Compounds that provided at least 50% protection were retested. Compounds that provided at least 50% protection on retest were listed as moderately active. […]
readoutKind: IC50

Reported IC50 ( CC(=O)C1(N=Nc2ccc(S(=O)(=O)Nc3nccc(C)n3)cc2)CCOC1=O (stereo not given) ) = > 200 µM

Reported IC50 ( C=C1c2cc3c(cc2CC12Cc1cc4c(cc1C2=O)CCC4)CCC3 (stereo not given) ) = > 200 µM

Reported IC50 ( `CC1(C)C(=O)C(C)(C)C1=S` ) = > 219 µM

Reported IC50 ( CS(=O)(=O)CS(=O)CS(=O)CS(=O)CC(NC(=O)CCC(N)C(=O)O)C(=O)O (stereo not given) ) = > 513 µM

Reported IC50 ( `O=C(c1ccc(Cl)cc1)c1cnc2nc(-c3ccccc3)c(-c3ccccc3)nn12` ) = > 1.78 µM

###

# Test system: CEM cells HIV-1 protection, formazan growth assay
# assayExplanation: NCI AIDS Antiviral Assay
# conditionsUsed: measured here: growth of uninfected CEM cells
readoutKind: IC50

Reported IC50 ( CC(=O)O[C@]12CCCCC1C1(O)C(O)CCCC[C@H]12 (stereo partly drawn) ) = > 200 µM

Reported IC50 ( `NC(=O)ON=C1CCN(Cc2ccccc2)CC1` ) = > 200 µM

Reported IC50 ( O=C1Sc2ccccc2C(=O)N2CCCC12 (stereo not drawn) ) = > 200 µM
